Tested on: Pseudomonas aeruginosa PAM1001
experiment: microbe, parasite or virus in culture
Type: cell-based
stated.conditions: Pseudomonas aeruginosa, PAM1001, read-out: Inhibition (%) of growth of P. aeruginosa PAM1001
Structures can show the parent of a compound that is named as a salt.
observed.property: inhibition at 10 µg/mL (%)
Give just the numeric value; % need not be written.

Given the molecule NCC(=O)N[C@H]1CN[C@H](C(=O)Nc2ccc(Nc3ccccc3)cc2)C1 [Compound D304, Dihydrochloride] , what is its reported inhibition at 10 µg/mL?
10

Similarly, NCC(=O)N[C@H]1CN[C@H](C(=O)N[C@H](CCc2ccccc2)C(=O)Nc2cnc3ccccc3c2)C1 [Compound D201, Trihydrochloride] ?
99

// next record NCC(=O)N[C@H]1CN[C@H](C(=O)Nc2ccc(Oc3ccc(Cl)cc3)cc2)C1 [Compound D303, Dihydrochloride]
100

Try this molecule next: N[C@H]1CCN[C@H](C(=O)N2C[C@H](NC(=O)[C@H](O)CCc3ccccc3)C[C@H]2C(=O)Nc2cnc3ccccc3c2)C1 (mixture of isomers) [Compound D112, Trihydrochloride]
17

And then NCC(=O)N[C@H]1CN[C@H](C(=O)Nc2ccc(OCc3ccccc3)cc2)C1 [Compound D317, Dihydrochloride] , what is it?
-1

Also, Cc1ccc(Oc2ccc(NC(=O)[C@@H]3C[C@@H](NC(=O)CN)CN3)cc2)cc1 [Compound D302, Dihydrochloride] please.
97

* * *

Please go through the items and note down their inhibition at 20 µg/mL.
Tested on: Pseudomonas aeruginosa PAM1001
experiment: microbe, parasite or virus in culture
Assay type: cell-based
stated.conditions: Pseudomonas aeruginosa, PAM1001, read-out: Inhibition (%) of growth of P. aeruginosa PAM1001
Counter-ions that a name gives are not always drawn.
Just the number please, in %, no unit attached.

If you can, please state the reported inhibition at 20 µg/mL value of NCC(=O)N[C@@H]1CN[C@@H](COc2ccc(-c3ccccc3)cc2)C1 [Compound D503, Dihydrochloride] .
100

Next molecule up: NCC(=O)N[C@H]1CN[C@H](C(=O)N2CCC(Oc3ccc(OCc4ccccc4)cc3)CC2)C1 [Compound D413, Dihydrochloride]
100

Request: NCC(=O)N[C@@H]1CN[C@@H](C(=O)N2C[C@H](NC(=O)[C@H](O)CCc3ccccc3)C[C@H]2C(=O)Nc2cnc3ccccc3c2)C1 (mixture of isomers) [Compound D105, Trihydrochloride]
99

Again, but for Cc1c(Cl)cccc1N1CCN(C(=O)[C@@H]2C[C@@H](CN)CN2)CC1 [Compound D407, Dihydrochloride]
99

Please do the same for NCC(=O)N[C@H]1CCN[C@H](C(=O)Nc2ccc(Oc3ccccc3)cc2)C1 [Compound D330, Dihydrochloride] as well.
100

# repeat for N[C@H]1CN[C@H](C(=O)N2C[C@H](NC(=O)[C@H](O)CCc3ccccc3)C[C@H]2C(=O)Nc2cnc3ccccc3c2)C1 (mixture of isomers) [Compound D101, Trihydrochloride]
20

Same for Cc1cc(C)cc(NC(=O)[C@@H](CCc2ccccc2)NC(=O)[C@@H]2C[C@@H](NC(=O)CN)CN2)c1 [Compound D205, Dihydrochloride]
100

Entry to check: N[C@H]1CCN[C@H](C(=O)Nc2ccc(Oc3ccccc3)cc2)C1 [Compound D329, Dihydrochloride]
16

Proceed to NCC(=O)N[C@H]1CN[C@H](C(=O)Nc2ccc(OCc3ccccc3)cc2)C1 [Compound D317, Dihydrochloride]
99

Now consider N[C@@H]1CCN[C@H](C(=O)N2C[C@H](NC(=O)[C@H](O)CCc3ccccc3)C[C@H]2C(=O)Nc2cnc3ccccc3c2)C1 (mixture of isomers) [Compound D113, Trihydrochloride] and answer again.
15

Let us now turn to NCC(=O)N[C@H]1CN[C@H](C(=O)N2CCC(Oc3cc(Cl)cc(Cl)c3)CC2)C1 [Compound D414, Dihydrochloride]
100

Param item: NC[C@H]1CN[C@H](C(=O)Nc2ccc(Oc3ccccc3)cc2)C1 [Compound D331, Dihydrochloride]
100

* * *

Tested on: Pseudomonas aeruginosa PAM1001
experiment: microbe, parasite or virus in culture
Format: cell-based
stated.conditions: Pseudomonas aeruginosa, PAM1001, read-out: Inhibition (%) of growth of P. aeruginosa PAM1001
Description: For compounds labeled with the prefix ‘D’, potentiation is measured by inhibition of growth of Pseudomonas aeruginosa PAM1001 at varying concentrations of efflux pump inhibitors (EPIs) in the presence of levofloxacin (0.25 microg/mL). […] Kinetics of bacterial growth is monitored, during 18 h of incubation at 37° C., by measurement of the culture absorbance at 650 nm using a 96-well plate spectrophotometer (SpectraMax, Molecular Devices). […]
Where a name gives a salt, the structure may show the parent alone.
Entry flag: t if inhibition at 10 µg/mL reaches 80%; f if it does not.

I'd appreciate it if you could say whether NC[C@H]1CN[C@H](C(=O)N2C[C@H](NC(=O)[C@H](O)CCc3ccccc3)C[C@H]2C(=O)Nc2cnc3ccccc3c2)C1 (mixture of isomers) [Compound D109, Trihydrochloride] has inhibition at 10 µg/mL at least equal to 80%.
t

Also check N[C@@H]1CCN[C@H](C(=O)N2C[C@H](NC(=O)[C@H](O)CCc3ccccc3)C[C@H]2C(=O)Nc2cnc3ccccc3c2)C1 (mixture of isomers) [Compound D113, Trihydrochloride]
f

Continue with NC[C@H](O)C(=O)N[C@H]1CN[C@H](C(=O)Nc2ccc(Oc3ccccc3)cc2)C1 [Compound D321, Dihydrochloride]
t

For NCC(=O)N[C@H]1CN[C@H](C(=O)N2CCC(Oc3cc(Cl)cc(Cl)c3)CC2)C1 [Compound D414, Dihydrochloride] then?
t

Can you handle NCC(=O)N[C@H]1CN[C@H](C(=O)Nc2cccc(OCc3ccccc3)c2)C1 [Compound D318, Dihydrochloride] next?
f

Try this molecule too: NCC(=O)N[C@@H]1CN[C@@H](COc2cccc(-c3ccccc3)c2)C1 [Compound D504, Dihydrochloride]
f

Queued: NCCC1CN[C@H](C(=O)N2C[C@H](NC(=O)[C@H](O)CCc3ccccc3)C[C@H]2C(=O)Nc2cnc3ccccc3c2)C1 (stereo partly shown) [Compound D110, Trihydrochloride]
t

* * *

Kindly state inhibition at 10 µg/mL for each of the entries shown.
Test system: Pseudomonas aeruginosa PAM1001
experiment: microbe, parasite or virus in culture
Format: cell-based
stated.conditions: Pseudomonas aeruginosa, PAM1001, read-out: Inhibition (%) of growth of P. aeruginosa PAM1001
Counter-ions that a name gives are not always drawn.
Kindly provide the numeric value in % only, without the unit symbol.

Suppose we examine the molecule NCC(O)C[C@H](N)C(=O)N1C[C@H](NC(=O)CCCc2ccccc2)C[C@H]1C(=O)Nc1ccc2c(c1)CCC2 (stereo partly drawn) [Compound D125, Dihydrochloride] ; what inhibition at 10 µg/mL value has been reported?
100

Lookup NCC(=O)N[C@H]1CN[C@H](C(=O)N2CCC(Oc3ccc(OCc4ccccc4)cc3)CC2)C1 [Compound D413, Dihydrochloride]
97

Proceed to NCC(=O)N[C@H]1CN[C@H](C(=O)Nc2ccc(CSc3ccccc3)cc2)C1 [Compound D319, Dihydrochloride]
99

* * *

Test system: Pseudomonas aeruginosa PAM1001
experiment: microbe, parasite or virus in culture
Type: cell-based
stated.conditions: Pseudomonas aeruginosa, PAM1001, read-out: Inhibition (%) of growth of P. aeruginosa PAM1001
Structures can show the parent of a compound that is named as a salt.
observed.property: inhibition at 10 µg/mL (%)
Write the number in % without appending the unit.

I am curious: what inhibition at 10 µg/mL value has been reported for NCC(=O)N[C@H]1CN[C@H](C(=O)N2CCN(c3cccc(Cl)c3)CC2)C1 [Compound D401, Dihydrochloride] ?
15

Can you check NCC(=O)N[C@@H]1CN[C@@H](COc2ccc(-c3ccccc3)cc2)C1 [Compound D503, Dihydrochloride] next?
100

Next: NCC(=O)N[C@H]1CN[C@H](COc2cccc(-c3ccccc3)c2)C1 [Compound D502, Dihydrochloride]
99

What do you have for NCCC[C@H](N)C(=O)N1C[C@@H](NC(=O)CCCc2ccccc2)C[C@H]1C(=O)Nc1ccc2c(c1)CCC2 ?
100

Also NCC(=O)N[C@H]1CN[C@H](C(=O)Nc2ccc(Cc3ccccc3)cc2)C1 [Compound D308, Dihydrochloride] ?
98

Same again, this time with NCC(O)[C@@H]1C[C@@H](Oc2cccc(-c3ccccc3)c2)CN1 (stereo partly shown) [Compound D602, Dihydrochloride]
100

Also need NCC(=O)N[C@H]1CCN[C@H](C(=O)Nc2ccc(Oc3ccccc3)cc2)C1 [Compound D330, Dihydrochloride] , thanks.
12

* * *

Consider the following compounds; for each one, report its inhibition at 10 µg/mL.
System: Pseudomonas aeruginosa PAM1001
experiment: microbe, parasite or virus in culture
Format: cell-based
stated.conditions: Pseudomonas aeruginosa, PAM1001, read-out: Inhibition (%) of growth of P. aeruginosa PAM1001
Method: For compounds labeled with the prefix ‘D’, potentiation is measured by inhibition of growth of Pseudomonas aeruginosa PAM1001 at varying concentrations of efflux pump inhibitors (EPIs) in the presence of levofloxacin (0.25 microg/mL). […] Kinetics of bacterial growth is monitored, during 18 h of incubation at 37° C., by measurement of the culture absorbance at 650 nm using a 96-well plate spectrophotometer (SpectraMax, Molecular Devices). […]
Where a name gives a salt, the structure may show the parent alone.
Value expressed in %; do not type the unit.

Suppose we examine the compound Cc1ccc(NC(=O)[C@@H](CCc2ccccc2)NC(=O)[C@@H]2C[C@@H](NC(=O)CN)CN2)cc1C [Compound D204, Dihydrochloride] ; what inhibition at 10 µg/mL value has been reported?
3

And NCC(=O)N[C@H]1CN[C@H](C(=O)N2C[C@H](NC(=O)[C@H](O)CCc3ccccc3)C[C@H]2C(=O)Nc2cnc3ccccc3c2)C1 (mixture of isomers) [Compound D103, Trihydrochloride] ?
99

Next up: Cc1c(Cl)cccc1N1CCN(C(=O)[C@@H]2C[C@@H](CN)CN2)CC1 [Compound D407, Dihydrochloride]
99
